Where these numbers come from: patent US20030180744

- Study Target: PDGF-BB (Homo sapiens, UniProt P01127 P01127:82-190)
- Sequence (P01127 82-190, one chain of several): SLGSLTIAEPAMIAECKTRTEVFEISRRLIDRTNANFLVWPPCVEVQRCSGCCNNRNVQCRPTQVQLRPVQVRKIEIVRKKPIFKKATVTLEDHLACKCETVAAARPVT
- Assay Info: filter; +/-0.031; high affinity component; PBSM, 37 C
- Test Parameters: tags: R&D Systems, E. coli; chain copies: 2 (inferred); label: 5'-32P; three-way helix junction
Assay Readout: pKd
Here pKd is given on a logarithmic scale as minus log10 of the concentration in mol/L.

Suppose we examine the binder TGGGAGGGCGCGTTCTTCGTGGTTACTTTTAGTCCCGT (ssDNA, 3'-3' linked T at 3' end) [20t] ; what pKd value has been reported?
9.90
